B1: library; numbered along this chain (parent)
chain: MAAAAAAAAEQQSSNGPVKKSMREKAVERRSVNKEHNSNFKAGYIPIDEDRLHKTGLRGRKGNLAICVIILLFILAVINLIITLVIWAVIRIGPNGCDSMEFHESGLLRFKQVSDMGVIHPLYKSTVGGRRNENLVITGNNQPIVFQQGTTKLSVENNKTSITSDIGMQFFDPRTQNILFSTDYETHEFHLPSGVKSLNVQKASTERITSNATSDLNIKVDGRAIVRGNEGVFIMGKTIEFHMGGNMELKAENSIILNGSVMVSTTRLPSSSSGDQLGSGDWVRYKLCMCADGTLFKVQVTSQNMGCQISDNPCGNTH

- Variants of: B1
- test_protocol: SGCB cell-surface expression functional score (HA stain, bin4 vs bin1, normalised to synonymous) (log10 ratio); higher = more cell-surface SGCB (functional)
Quick rule for you: SGCB cell-surface expression functional score (log10) at 0.01 or higher means YES, lower means NO.

change	assigned_class
P192W	NO
R223I	YES
P173D	NO
L257F	YES
I69K	NO

Query :: Quick check, SGCB cell-surface expression functional score (log10) >= 0.01? L64M
Result :: NO

Query :: Quick check, SGCB cell-surface expression functional score (log10) >= 0.01? P143A
Result :: NO
